Tested on: ATF4 luciferase reporter in HEK293T cells
ASSAY: ATF4-Luc assay (in vitro model of VWMD)
Assay type: cell-based, human
ASSAY CONDITIONS: Homo sapiens, HEK-293T, 7 h, HEK293T cells carrying the ATF4 luciferase reporter, 1 μg/mL tunicamycin, One Glo luminescence
ENDPOINT: EC50

Give EC50; test system ATF4 luciferase reporter in HEK293T cells; compound O=C(NC12CC(n3cc([C@@H]4CC[C@H](OC(F)(F)F)C4)nn3)(C1)C2)[C@H]1C[C@@H](O)c2cc(Cl)ccc2O1 (mixture of isomers) [Compound 539] 10 to 50 nM

Give EC50; test system ATF4 luciferase reporter in HEK293T cells; compound O=C(COc1ccc(Cl)c(F)c1)NC12CCC(c3nnc([C@H]4C[C@@H](OC(F)(F)F)C4)o3)(CC1)CC2O (stereo partly shown) [Compound 124] 10 to 50 nM

Give EC50; test system ATF4 luciferase reporter in HEK293T cells; compound O=C(NC12CC(n3cc([C@@H]4CC[C@@H](OC(F)(F)F)C4)nn3)(C1)C2)[C@H]1C[C@@H](O)c2cc(Cl)ccc2O1 (mixture of isomers) [Compound 538] < 10 nM
